# Protocol text: chemical genetic growth profiling, strain panel (AID 1159580);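 note: tested at 20 µM; growth read once vehicle control cultures reached saturation at 30 °C; 1 = growth at the plate median or of vehicle wells; lower values mean less growth of the strain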
# Condition label: S. cerevisiae deletion strains, growth OD, locus YML070W, strain DAK1
The campaign covered roughly 5,500 compounds. About 2,000 (36%) were called active. About 18% were inconclusive and are not listed. Cut-off read from the data, not from the text of the source: active = normalized growth mostly below about 0.91 (no sharp cut-off); inconclusive = no clear call, values can overlap the other calls; inactive = mostly above about 0.92. This is one part of the list.
Outcome codes: yes (1) (active), no (0) (inactive)

>>> label_class("O=[N+]([O-])c1cc(Br)cnc1Sc1nnc(SCC2CC2)s1")
"yes (1)"
>>> label_class("Cc1cc(Cl)ccc1NC(=S)NNC(=S)Nc1ccc(F)cc1")
"no (0)"
>>> label_class("CSc1cc(-c2ccncc2)nc(-c2cccs2)c1")
"no (0)"
>>> label_class("Cn1c(CSCCOc2ccccc2)nnc1SCc1ccc(Cl)cc1Cl")
"no (0)"
>>> label_class("NC(=Nc1ccc(F)cc1)SCc1c(Cl)cccc1Cl")
"no (0)"
>>> label_class("O=C(NCCSCc1cccc(C(F)(F)F)c1)c1ccc(Cl)cc1")
"no (0)"
>>> label_class("COc1ccc(C(=O)CSC2=NCCc3ccccc32)cc1")
"no (0)"
>>> label_class("CCCc1c(C(=O)NC2Cc3ccccc3C2)cnn1-c1ccccc1")
"no (0)"
>>> label_class("C/C(=C\\c1ccc2c(c1)OCO2)[N+](=O)[O-]")
"yes (1)"
>>> label_class("Fc1cccc(Cl)c1CSc1nncn1-c1ccc(OCc2ccccc2)cc1")
"no (0)"
>>> label_class("CCCc1c(C(=O)Sc2ccccn2)cnn1-c1ccc(Cl)cc1")
"no (0)"
>>> label_class("CC(C)c1ccc(NC(=S)NC(=O)c2ccccc2)cc1")
"no (0)"
>>> label_class("O=C(NC(=S)Nc1cccc(C(F)(F)F)c1)c1ccc2nonc2c1")
"no (0)"
>>> label_class("Cc1c(C)c(C)c(CSC(N)=Nc2ccc(F)cc2)c(C)c1C")
"no (0)"
>>> label_class("FC(F)(F)c1cccc(NC(=S)Nc2csc(C(F)(F)F)c2-c2ccccc2)c1")
"no (0)"
>>> label_class("O=[N+]([O-])c1ccccc1CS(=O)(=O)c1nc2ccccc2s1")
"no (0)"
>>> label_class("O=C(c1ccc2ccccc2c1)N1CCN(c2ccnc3cc(Cl)ccc23)CC1")
"no (0)"
>>> label_class("Cc1ccc(S(=O)(=O)CCSC2=CC(=O)CC(C)(C)S2)cc1")
"no (0)"
>>> label_class("O=[N+]([O-])/C=C/c1ccc(F)cc1")
"yes (1)"
>>> label_class("FC(F)(F)c1cccc(NC(=S)Nc2ccccc2)c1")
"no (0)"
>>> label_class("N#CCC(=O)NNC(=S)Nc1ccc(Cl)c(Cl)c1")
"no (0)"
>>> label_class("O=C(NC(=O)c1c(F)cccc1Cl)OCc1ccc(Cl)cc1Cl")
"no (0)"
>>> label_class("COC(=O)C1=C(C)NC(C)=C(C(=O)OC)C1c1ccc(Cl)cc1Cl")
"no (0)"
>>> label_class("FC(F)(F)c1cccc(NNC(=S)Nc2ccccc2)c1")
"no (0)"

###

The entries below are paired with their reported normalized growth.
# Protocol text: chemical genetic growth profiling, strain panel (AID 1159580);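 note: tested at 20 µM; growth read once vehicle control cultures reached saturation at 30 °C; 1 = growth at the plate median or of vehicle wells; lower values mean less growth of the strain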
# Condition label: S. cerevisiae deletion strains, growth OD, locus YER016W, strain bim1, active compounds read low
The whole screen tested about 5,500 compounds, of which about 2,000 (36%) were called active. Another 18% or so got no clear call; they are omitted. This is one part of the list.
Endpoint label: normalized growth

>>> observed_measurement("Nc1ccc(S(=O)(=O)Nc2ccc(Cl)nn2)cc1")
1
>>> observed_measurement("CC(C)=CCC/C(C)=C/CC/C(C)=C/CC/C(C)=C/CC/C(C)=C/CC/C(C)=C/CC/C(C)=C/CC/C(C)=C/CC/C(C)=C/CO")
0.991
>>> observed_measurement("CO[C@H]1/C=C/O[C@@]2(C)Oc3c(C)c(O)c4c(O)c(c5c(nc6cc(C)ccn65)c4c3C2=O)NC(=O)/C(C)=C\\C=C\\[C@H](C)[C@H](O)[C@@H](C)C(O)[C@@H](C)[C@H](OC(C)=O)[C@@H]1C (stereo partly drawn)")
1.03
>>> observed_measurement("Cc1c(O)c(O)cc2c1CC=C1[C@@]2(C)CC[C@@]2(C)C3C[C@](C)(C(=O)O)CC[C@]3(C)CC[C@]12C (stereo partly drawn)")
0.612
>>> observed_measurement("CCN(CC)CCNC(=O)c1cc(S(C)(=O)=O)ccc1OC")
0.988
>>> observed_measurement("C[C@H](N)[C@H](O)c1ccc(O)c(O)c1")
1.01
>>> observed_measurement("COc1cc(C(=O)NCc2ccc(OCCN(C)C)cc2)cc(OC)c1OC")
0.994
>>> observed_measurement("CN(C)CCOc1ccc(/C(=C(/CCCl)c2ccccc2)c2ccccc2)cc1")
0.0811
>>> observed_measurement("Nc1ccc(S(=O)(=O)Nc2ccccn2)cc1")
0.996
>>> observed_measurement("O=C(O)/C=C/C=C/c1ccccc1")
0.816
>>> observed_measurement("C/C=C/c1ccc2c(c1)OCO2")
1.02
>>> observed_measurement("O=C(O[C@@H]1Cc2c(O)cc(O)cc2O[C@@H]1c1cc(O)c(O)c(O)c1-c1c([C@H]2Oc3cc(O)cc(O)c3C[C@H]2O)cc(O)c(O)c1O)c1cc(O)c(O)c(O)c1")
1.01
>>> observed_measurement("COc1cc2c(c(OC)c1OC)-c1ccc(OC)c(=O)cc1[C@@H](NC(C)=O)CC2")
0.963
>>> observed_measurement("O=C1C=CC2=C3c4cc(O)c(O)cc4CC3(O)COC2=C1O (stereo not drawn)")
1.04
>>> observed_measurement("CC(=O)Nc1ccc(S(=O)(=O)c2ccc(NC(C)=O)cc2)cc1")
0.996
>>> observed_measurement("O=C(O)c1ccccc1Nc1cccc(C(F)(F)F)c1")
0.837
>>> observed_measurement("CC(C)(C)NCC(O)c1ccccc1Cl (stereo not drawn)")
0.989
>>> observed_measurement("CC/C(=C(\\c1ccccc1)c1ccc(OCCN(C)C)cc1)c1ccccc1")
0.164
>>> observed_measurement("O=C(O)CF")
1.01
>>> observed_measurement("CC(=O)/C(=C\\c1ccccc1)CC(=O)O")
0.993
>>> observed_measurement("C=CCC1(C(C)CCC)C(=O)N=C(S)NC1=O (stereo not drawn)")
0.987
>>> observed_measurement("CN(C)CCOC(C)(c1ccccc1)c1ccccn1 (stereo not drawn)")
1.01
>>> observed_measurement("CC(C)NCC(O)c1ccc2ccccc2c1 (stereo not drawn)")
0.997
>>> observed_measurement("COc1ccc(C(Cl)=C(c2ccc(OC)cc2)c2ccc(OC)cc2)cc1")
0.971
>>> observed_measurement("CC(=O)NCCCS(=O)(=O)O")
1.02
>>> observed_measurement("CC1(C)C(=O)C=C[C@@]2(C)C1=C(O)C(=O)[C@]1(C)C2CC[C@@]2(C)[C@H](c3ccoc3)C[C@H]3O[C@]321 (stereo partly drawn)")
0.934
>>> observed_measurement("CC1(C)C(C(Cl)Cl)C2(Cl)C(Cl)C(Cl)C1(Cl)C2(Cl)Cl (stereo not drawn)")
0.984
>>> observed_measurement("OC[C@@H]1CCCN2CCCC[C@H]12")
1.02
>>> observed_measurement("CC(=O)O[C@@H]1C[C@@]2(C)[C@H](c3ccoc3)C[C@H]3O[C@]32[C@]2(C)C(=O)C(O)=C3C(C)(C)C(=O)C=C[C@]3(C)C12 (stereo partly drawn)")
0.953
>>> observed_measurement("COc1c2c(cc3c1OCO3)CCN(C)C2")
1.02
>>> observed_measurement("CC(=O)O[C@@H]1CC2C(C)(C)C=CC(=O)[C@]2(C)C2CC[C@@]3(C)[C@H](c4ccoc4)OC(=O)C4OC43[C@@]21C (stereo partly drawn)")
0.993
>>> observed_measurement("CC(C)=CCC[C@](C)(O)C1CC=C(C)CC1 (stereo partly drawn)")
0.987
>>> observed_measurement("COc1cccc(/C=C/C(=O)O)c1C(C)C")
0.981
>>> observed_measurement("CCCCC(CC)CN1CN(CC(CC)CCCC)CC(C)(N)C1 (stereo not drawn)")
0.0563
>>> observed_measurement("CCC(Cc1c(I)cc(I)c(N)c1I)C(=O)O (stereo not drawn)")
0.927
>>> observed_measurement("CS(=O)(=O)CCCCN=C=S")
0.758
>>> observed_measurement("O=C1C=CC2=C3c4cc(O)c(O)cc4C[C@@]3(O)COC2=C1")
0.976
>>> observed_measurement("Nc1ncn([C@@H]2O[C@H](CO)[C@@H](O)[C@H]2O)c(=O)n1")
1.01
>>> observed_measurement("Cc1ccsc1/C=C/C1=NCCCN1C")
0.982
>>> observed_measurement("COC(=O)C[C@H]1C(C)(C)C(=O)[C@@H]2CC3=C4CC(=O)O[C@@H](c5ccoc5)[C@]4(C)CCC3[C@@]1(C)C2=O (stereo partly drawn)")
0.996
>>> observed_measurement("CCN(CC)CCOc1ccc(/C(=C(\\Cl)c2ccccc2)c2ccccc2)cc1")
0.218
>>> observed_measurement("Cc1occc(=O)c1O")
0.958
>>> observed_measurement("NC(=NCCC[C@H](N)C(=O)O)NC(CCC(=O)O)C(=O)O (stereo partly drawn)")
1
